- System: TTR
- Measurement protocol: TTR editing in primary human hepatocytes transfected with Spy Cas9 mRNA and sgRNAs (Table 13)
- Type: cell-based
- Setup conditions: primary human hepatocytes co-transfected with Spy Cas9 mRNA (SEQ ID NO:2) and sgRNAs, 12.5 nM
- Experimental: Primary liver hepatocytes. Primary human liver hepatocytes (PHH) and primary cynomolgus liver hepatocytes (PCH) (Gibco) were cultured per the manufacturer's protocol (Invitrogen, protocol 11.28.2012). […] Cells were counted and plated on Bio-coat collagen I coated 96-well plates (ThermoFisher, Cat. 877272) at a density of 33,000 cells/well for human or 60,000 cells/well for cyno (or 65,000 cells/well when assaying effects on TTR protein, described further below). […]
Strand notation (5' to 3'): a small letter for the sugar, then the base; units joined by * are phosphorothioate-linked, units joined directly phosphodiester-linked; [ ] holds rarer units or linkages, { } end groups; capitals alone tell only the bases. m = 2'-O-methyl; r = 2'-OH (RNA)
Experimental readout: Avg % Edit (%)
Answer with a number only, understood to be in %.

For G000480: TTR sgRNA modified sequence, Human, SEQ ID No. 87; guide sequence of CR003353 (nucleic acid) guide: mA*mA*mA*rGrGrCrUrGrCrUrGrArUrGrArCrArCrCrUrGrUrUrUrUrArGrAmGmCmUmAmGmAmAmAmUmAmGmCrArArGrUrUrArArArArUrArArGrGrCrUrArGrUrCrCrGrUrUrArUrCrAmAmCmUmUmGmAmAmAmAmAmGmUmGmGmCmAmCmCmGmAmGmUmCmGmGmUmGmCmU*mU*mU*mU the molecule record lists Avg % Edit as 73.28

For G000485: TTR sgRNA modified sequence, Human, SEQ ID No. 92; guide sequence of CR003336 (nucleic acid) guide: mC*mC*mU*rCrCrUrCrUrGrCrCrUrUrGrCrUrGrGrArCrGrUrUrUrUrArGrAmGmCmUmAmGmAmAmAmUmAmGmCrArArGrUrUrArArArArUrArArGrGrCrUrArGrUrCrCrGrUrUrArUrCrAmAmCmUmUmGmAmAmAmAmAmGmUmGmGmCmAmCmCmGmAmGmUmCmGmGmUmGmCmU*mU*mU*mU the molecule record lists Avg % Edit as 30.82
